Experiment: Antiproliferative activity against HEK293T cells at 5 uM incubated for 48 hrs by MTT assay relative to control
Format: toxicity, cell-based, HEK-293T
Details: human
Items are presented alongside their recorded inhibition at 48 h, 5 µM.
Numbers only; they are read as %.

// below: answered compounds
Smiles Input: CN(c1ccc(OC(F)(F)F)cc1)c1nc(C(=O)c2ccccc2)nc2ccc(F)cc12
inhibition at 48 h, 5 µM (%): 1.3
//
Smiles Input: CCOC(=O)c1c(C)nc(-c2ccc(N(C)c3nc(C(=O)c4ccccc4)nc4ccc(F)cc34)cc2)n1C
inhibition at 48 h, 5 µM (%): 0.3
//
Smiles Input: COc1ccc(Nc2nc(C(=O)c3cccc(OC)c3)nc3ccccc23)cc1
inhibition at 48 h, 5 µM (%): 4.7
//
Smiles Input: CCOC(=O)c1[nH]c(-c2ccc(Nc3nc(C(=O)c4ccccc4)nc4ccc(F)cc34)cc2)nc1C
inhibition at 48 h, 5 µM (%): 58.3
//
Smiles Input: CC(C)[C@H](N)c1nc(N(C)c2ccc(OC(F)(F)F)cc2)c2ccccc2n1
inhibition at 48 h, 5 µM (%): 25.5

Shifting focus to the compound that follows.
Per the records, this compound ( `COC(=O)c1ccc(Nc2nc(C(=O)c3ccc(F)cc3)nc3ccccc23)cc1` ) has inhibition at 48 h, 5 µM equal to 18.9
